src = patent US4552898A

# Test Name: Acute toxicity in mice, single intraperitoneal administration
# Design: species or system Male Sim: (SW)f BR mice
# Protocol Conditions: mouse, in vivo, ip
Measurement Type: LD50

get_value(item= CCCCCC(O)C#CC1CC2C(=NOCCC(=O)O)CC2C1O (stereo not shown) [Test Material] , readout=LD50) returns > 120 mg/kg
